assay: PK assessment: plasma tinostamustine and metabolites M2 and M8, non-compartmental analysis and population PK model; type: in vivo, human; details: human, plasma, intravenous, 60 mg/m^2, 60 mg/m^2, infusion 30 minutes, day one, Mean (SD)
PARAMETER: AUC

Lab note: "Cn1c(CCCCCCC(=O)NO)nc2cc(N(CCCl)CCCl)ccc21" gave AUC of 627 ng·h/mL

----------
Experiment: PK assessment: plasma tinostamustine and metabolites M2 and M8, non-compartmental analysis and population PK model
Format: in vivo, human
Conditions: human, plasma, intravenous, 80 mg/m^2, 80 mg/m^2, infusion 45 minutes, day one, Mean (SD)
Experimental: Plasma samples were collected to determine the concentrations of tinostamustine and its metabolites (labelled M2 and M8) by a method fully validated according to the relevant guidelines. The PK profiles of tinostamustine in plasma were assessed in each patient in the escalation stage of the study, in cycle 1 only. […]
PARAMETER: Cmax (ng/mL)
// return numeric value only (unit: ng/mL, not printed)

Lab note: "Cn1c(CCCCCCC(=O)NO)nc2cc(N(CCCl)CCCl)ccc21" gave Cmax of 1280

----------
assay: PK assessment: plasma tinostamustine and metabolites M2 and M8, non-compartmental analysis and population PK model; assay type: in vivo, human; conditions: human, plasma, intravenous, 60 mg/m^2, 60 mg/m^2, infusion 60 minutes, day one, Mean (SD)
PARAMETER: Tmax
Just the number plus its unit, please.

Lab note: Cn1c(CCCCCCC(=O)NO)nc2cc(N(CCCl)CCCl)ccc21 [tinostamustine] gave Tmax of 1 h

----------
experiment: PK assessment: plasma tinostamustine and metabolites M2 and M8, non-compartmental analysis and population PK model; assay type: in vivo, human; settings: human, plasma, intravenous, population PK, two-compartmental model, 36 patients; read-out: B half-life (converted)
PARAMETER: half-life (h)
// return numeric value only (unit: h, not printed)

Lab note: "Cn1c(CCCCCCC(=O)NO)nc2cc(N(CCCl)CCCl)ccc21" gave half-life of 3.6

----------
experiment: PK assessment: plasma tinostamustine and metabolites M2 and M8, non-compartmental analysis and population PK model; format: in vivo, human; details: human, plasma, intravenous, 20 mg/m^2, 20 mg/m^2, infusion 60 minutes, day one, Mean (SD)
PARAMETER: Tmax (min)
// return numeric value only (unit: min, not printed)

Lab note: Cn1c(CCCCCCC(=O)NO)nc2cc(N(CCCl)CCCl)ccc21 [tinostamustine] gave Tmax of 48

----------
assay: PK assessment: plasma tinostamustine and metabolites M2 and M8, non-compartmental analysis and population PK model; type: in vivo, human; details: human, plasma, intravenous, 60 mg/m^2, 60 mg/m^2, infusion 60 minutes, day one, Mean (SD)
PARAMETER: AUC (ng·h/mL)
// return numeric value only (unit: ng·h/mL, not printed)

Lab note: Cn1c(CCCCCCC(=O)NO)nc2cc(N(CCCl)CCCl)ccc21 [tinostamustine] gave AUC of 592

----------
assay: PK assessment: plasma tinostamustine and metabolites M2 and M8, non-compartmental analysis and population PK model; type: in vivo, human; settings: human, plasma, intravenous, 120 mg/m^2, 120 mg/m^2, infusion 60 minutes, day one, Mean (SD)
PARAMETER: Cmax (ng/mL)
// return numeric value only (unit: ng/mL, not printed)

Lab note: "Cn1c(CCCCCCC(=O)NO)nc2cc(N(CCCl)CCCl)ccc21" gave Cmax of 1770

The measurements presented in this section are drawn from patent US12377076B2.
